Kindly supply the reported pEC50 values for the records listed here.
tested on: influenza A/H1N1 (A/Ned/378/05); experiment: Antiviral CPE reduction assay, influenza A/H1N1 in MDCK cells; format: cell-based, influenza A virus; conditions: Influenza A virus, H1N1; MDCK cells; CPE reduction, MTS; mean ± SD of two or three independent experiments; read-out: Antiviral Activity (EC50) Influenza H1N1
pEC50: −log10 of the molar value.

Would you please look over these solved cases?
Input line: Param item = c1cncc(Nc2ncnc3nc(NC4CC4)ncc23)c1 ; retrieve measured pEC50.
Output line: < 4.30

Input line: Entry c1cc2c(c(Nc3ncnc4nc(NC5CC5)ncc34)c1)CCC2 please
Output line: < 4.30

Input line: How about this molecule: CC(=O)N[C@H]1[C@H]([C@H](O)[C@H](O)CO)OC(C(=O)O)=C[C@@H]1N=C(N)N [Zanamivir, zanamivir, reference compound]
Output line: 6.22

Input line: And what about the molecule CC(N)C12CC3CC(CC(C3)C1)C2 (centres unmarked) [Rimantadine, rimantadine, reference compound] ?
Output line: 5.77

Input line: Lookup CCN(CC)CCNc1ncc2c(Nc3cccc4c3CCC4)ncnc2n1
Output line: < 4.30

Input line: Similarly, CN1CCN(c2ncc3c(Nc4cccc5c4CCC5)ncnc3n2)CC1 ?
Output line: < 4.30

Could you report pEC50 for every entry in the following list?
1. C=CC(=O)Nc1cccc(Oc2nc(Nc3ccc(N4CCN(C)CC4)cc3OC)ncc2Cl)c1 [WZ4002, reference compound]
2. CCN(CC)CCNc1ncc2c(Nc3cccnc3)ncnc2n1

Output line:
< 4.00
< 4.30

Parameters: items (list). Returns: pEC50 for each item.
1. C#Cc1cccc(Nc2ncnc3nc(NC4CC4)ncc23)c1
2. CN1CCN(c2ncc3c(Nc4cccnc4)ncnc3n2)CC1
3. C#Cc1cccc(Nc2ncnc3cc4c(cc23)OCCOCCOCCO4)c1 [Icotinib, icotinib, reference compound]

Output line:
< 4.30
< 4.30
< 4.00

Cited source for all entries: paper PMC11643962
